Catalogue of remaining at 2 h, 1 µM values
Tested on: Pancreatin
Test: Protease stability in simulated intestinal fluid (Pancreatin-SIF, FaSSIF)
Type: in vitro ADME
Conditions: 120 min, 1 μM peptide, 37° C., read-out: FaSSIF 120 (min), remaining percent of peptide
Starred links: 1 amine or outer side, 2 acyl side, 3 side chain; linkers in the order of their positions; H or OH if unused. Positions of bridges follow the written chain, without caps; N, C: chain ends. Non-standard residues stand in square brackets, D forms with d. Residues, ends and D or L forms follow the SMILES beside them. *: point of attachment. X3 = CN(CCCCC(=O)N[C@@H](CS[*:2])C(=O)[*:1])[*:3]; Trp(7-Me) = Cc1cccc2c(C[C@H](N)C(=O)O)c[nH]c12; X1 = O=C(CCCCN[*:3])N[C@@H](CS[*:2])C(=O)[*:1]; αMeLys(Me2) = CN(C)CCCC[C@](C)(N)C(=O)O; X2 = CN(C)[C@@H](CCCCN[*:1])C(=O)[*:2]; 2Nal = N[C@@H](Cc1ccc2ccccc2c1)C(=O)O; AEF = NCCOc1ccc(C[C@H](N)C(=O)O)cc1; 3Pal = N[C@@H](Cc1cccnc1)C(=O)O; X4 = CN(CCCCCC(=O)[*:2])[*:1]; αMeL = CC(C)C[C@](C)(N)C(=O)O; Thp = NC1(C(=O)O)CCOCC1; Me2NCH2CH2 = CN(C)CC*; Aib = CC(C)(N)C(=O)O; Ava = NCCCCC(=O)O; Sar = CNCC(=O)O
# value in %; strip the unit string

>>> measured_value("CC(=O)N[C@H]1CCCCNC(=O)[C@@H]2CSSC[C@H](NC(=O)[C@H](CCC(N)=O)NC(=O)[C@H](Cc3c[nH]c4ccccc34)NC1=O)C(=O)N[C@@H](Cc1ccc(OCCN)cc1)C(=O)N[C@@H](Cc1ccc3ccccc3c1)C(=O)NC1(CCOCC1)C(=O)N[C@H](C(=O)N[C@@H](CC(N)=O)C(=O)N[C@@H](CC(N)=O)C(N)=O)CCC(=O)N(C)CCCCC(=O)N2 [compound 13] (Ac-KWQC[AEF][2Nal][Thp]ENN-NH2; linker 1-4-8 via X3)")
70
>>> measured_value("CC(=O)NCCCC[C@@H]1NC(=O)[C@H](Cc2c[nH]c3c(C)cccc23)NC(=O)[C@@H](NC(C)=O)CCCCNC(=O)[C@@H]2CSSC[C@H](NC1=O)C(=O)N[C@@H](Cc1ccc(OCCN(C)C)cc1)C(=O)N[C@@H](Cc1ccc3ccccc3c1)C(=O)NC(C)(C)C(=O)N[C@H](C(=O)N[C@@H](CC(N)=O)C(=O)N[C@@H](Cc1cccnc1)C(=O)N(C)CC(N)=O)CCC(=O)NCCCCC(=O)N2 [compound 72] (Ac-K[Trp(7-Me)]K(Ac)CY(Me2NCH2CH2)[2Nal][Aib]EN[3Pal][Sar]-NH2; linker 1-4-8 via X1)")
90
>>> measured_value("CC(=O)NCCCC[C@@H]1NC(=O)[C@H](Cc2c[nH]c3ccccc23)NC(=O)[C@@H](N(C)C)CCCCNC(=O)[C@@H]2CSSC[C@H](NC1=O)C(=O)N[C@@H](Cc1ccc(OCCN(C)C)cc1)C(=O)N[C@@H](Cc1ccc3ccccc3c1)C(=O)N[C@@](C)(CCCCN(C)C)C(=O)N[C@H](C(=O)N[C@@H](CC(N)=O)C(=O)N[C@@H](Cc1cccnc1)C(=O)N(C)CC(N)=O)CCC(=O)NCCCCC(=O)N2 [compound 36] ([Ava]C[X2]WK(Ac)CY(Me2NCH2CH2)[2Nal][αMeLys(Me2)]EN[3Pal][Sar]-NH2; disulfide 2-6; lactam N-10)")
93

// recorded remaining at 2 h, 1 µM for CC(C)C[C@@H](NC(=O)[C@H](CC(N)=O)NC(=O)[C@@H]1CC(=O)N(C)CCCCCC(=O)N[C@H]2CSSC[C@H](NC(=O)[C@H](CCC(N)=O)NC(=O)[C@H](Cc3c[nH]c4ccccc34)NC(=O)[C@H]([C@@H](C)O)NC(=O)[C@H](CC(N)=O)NC2=O)C(=O)N[C@@H](Cc2ccc(OCCN(C)C)cc2)C(=O)N[C@@H](Cc2ccc3ccccc3c2)C(=O)N[C@@](C)(CC(C)C)C(=O)N1)C(N)=O [compound 40] ([X4]CNTWQCY(Me2NCH2CH2)[2Nal][αMeL]DN[dL]-NH2; disulfide 2-7; lactam N-11) : 70

// recorded remaining at 2 h, 1 µM for C[C@@H](O)[C@@H]1NC(=O)[C@H](CC(N)=O)NC(=O)[C@@H]2CSSC[C@H](NC(=O)[C@H](CCC(N)=O)NC(=O)[C@H](Cc3c[nH]c4ccccc34)NC1=O)C(=O)N[C@@H](Cc1ccc(OCCN)cc1)C(=O)N[C@H](Cc1ccc3ccccc3c1)C(=O)NC(C)(C)C(=O)N[C@H](C(=O)N[C@@H](CC(N)=O)C(=O)N[C@@H](CC(N)=O)C(N)=O)CCC(=O)NCCCCC(=O)N2 : 86
